- measurement target: Broad substrate specificity ATP-binding cassette transporter ABCG2 (Homo sapiens)
- Sequence (Q9UNQ0 whole entry): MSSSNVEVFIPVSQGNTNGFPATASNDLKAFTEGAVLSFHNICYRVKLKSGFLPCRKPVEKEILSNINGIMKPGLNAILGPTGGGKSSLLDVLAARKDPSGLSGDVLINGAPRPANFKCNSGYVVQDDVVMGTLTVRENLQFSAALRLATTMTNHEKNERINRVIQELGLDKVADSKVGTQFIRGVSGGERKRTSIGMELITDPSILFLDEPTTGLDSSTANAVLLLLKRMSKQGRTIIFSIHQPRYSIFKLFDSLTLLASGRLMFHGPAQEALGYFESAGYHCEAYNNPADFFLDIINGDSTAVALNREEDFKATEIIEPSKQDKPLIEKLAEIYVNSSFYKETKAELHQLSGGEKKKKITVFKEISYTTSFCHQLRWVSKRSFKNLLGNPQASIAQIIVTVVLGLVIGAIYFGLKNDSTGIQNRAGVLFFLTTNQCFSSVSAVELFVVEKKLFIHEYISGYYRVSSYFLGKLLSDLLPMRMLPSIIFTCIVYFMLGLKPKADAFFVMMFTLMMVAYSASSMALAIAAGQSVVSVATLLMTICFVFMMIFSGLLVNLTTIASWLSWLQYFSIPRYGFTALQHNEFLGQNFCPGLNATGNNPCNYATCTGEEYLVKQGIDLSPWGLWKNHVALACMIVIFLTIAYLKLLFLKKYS
- method notes: Inhibition of BCRP (unknown origin) expressed in MDCK cells assessed as reduction of […] transport after 30 mins by fluorescence assay
Known EC50 of a selection of molecules

smiles record | measurement target | EC50
COc1cc2c(cc1OC)CN(CCCCOc1ccc3ccccc3n1)CC2 | Broad substrate specificity ATP-binding cassette transporter ABCG2 (Homo sapiens) | > 100 µM

Q. Please look up its EC50: COc1cc2c(cc1OC)CN(CCCOc1ccc3ccccc3n1)CC2
A. > 100 µM

Q. Please look up its EC50: COc1cc2c(cc1OC)CN(C(=O)COc1ccc3ccccc3n1)CC2
A. > 100 µM

Q. Please look up its EC50: COc1cc2c(cc1OC)CN(CCCCCOc1ccc3ccccc3n1)CC2
A. > 100 µM

Q. Please look up its EC50: COc1cc2c(cc1OC)CN(CCCOc1ccnc3ccccc13)CC2
A. > 100 µM

Q. Please look up its EC50: COc1cc2c(cc1OC)CN(CCOc1ccc3ccccc3n1)CC2
A. > 100 µM

====

- method notes: P-glycoprotein-mediated transport in human Caco2 cells assessed as efflux ratio of apparent permeability from basolateral to apical over apical to basolateral after 120 mins
- Type: ADME, cell-based
- assay setup: caco-2, 2 h
measured metric: Ratio

Below, 2 compounds whose answers are already recorded.
smiles record | Ratio
COc1cc2c(cc1OC)CN(CCOc1ccc3ccccc3n1)CC2 | 4.6
COc1cc2c(cc1OC)CN(CCCOc1ccc3ccccc3n1)CC2 | 4.4

[1] COc1cc2c(cc1OC)CN(CCCCOc1ccc3ccccc3n1)CC2
[2] COc1cc2c(cc1OC)CN(CCCCCOc1ccc3ccccc3n1)CC2
Q. Of 1 versus 2 , which is the one with smaller reported Ratio? State your choice using its label.
A. 2
(2: 2.9, 1: 4.2)
